Source of measurements: patent US6841567B1

# targetOrSystem: PDGFβ receptor kinase domain (recombinant human PDGFRβ) (Homo sapiens)
# Construct: kinase activity of baculovirus-expressed PDGFβ receptor kinase domain; made in house; host or cells: baculovirus expression system
# Sequence (P09619 600-962 limits assumed): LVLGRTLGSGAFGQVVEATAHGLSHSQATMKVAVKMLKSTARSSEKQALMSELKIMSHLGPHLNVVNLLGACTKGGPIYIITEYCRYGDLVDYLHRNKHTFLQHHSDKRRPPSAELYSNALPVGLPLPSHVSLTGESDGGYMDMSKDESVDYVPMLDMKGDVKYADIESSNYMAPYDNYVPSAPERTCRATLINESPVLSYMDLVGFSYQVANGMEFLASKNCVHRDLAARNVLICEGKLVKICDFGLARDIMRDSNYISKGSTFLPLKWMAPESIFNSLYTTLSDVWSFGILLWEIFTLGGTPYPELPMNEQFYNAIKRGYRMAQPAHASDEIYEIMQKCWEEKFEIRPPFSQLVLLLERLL
# experimentalProtocol: Inhibition of platelet derived growth factor receptor kinase activity (ELISA)
# Format: biochemical
# particulars: 300 nM compound; read-out: PDGFRβ % inh @ 300 nM (values in parentheses)
readoutType: inhibition at 0.3 µM (%)

As a guide, the following entries are already answered.
molecule	readoutType	scaleUnit	quantitativeResult
CC1C=CC(C(O)C2c3ccccc3-c3c4c(c5c([nH]c6ccccc65)c32)CNC4=O)n2c(=O)n(-c3ccccc3)c(=O)n21 (stereo not drawn) [II-64]	inhibition at 0.3 µM	%	29
O=C1NCc2c1c1c(c3c2c2ccccc2n3CC2CC2)C(CC2CC2)c2ccccc2-1 (stereo not drawn) [II-65]	inhibition at 0.3 µM	%	5
COC(=O)[C@H]1CSC(CCn2c3ccccc3c3c4c(c5c(c32)Cc2ccccc2-5)C(=O)NC4)N1 (stereo partly drawn) [II-67]	inhibition at 0.3 µM	%	23

(I) CCNC(=O)n1c2ccccc2c2c3c(c4c(c21)C(C1(CO)CCCO1)c1ccccc1-4)C(=O)NC3 (stereo not drawn) [II-69]
(II) CCNC(=O)OCC1(C2c3ccccc3-c3c4c(c5c6ccccc6n(C(=O)NCC)c5c32)CNC4=O)CCCO1 (stereo not drawn) [II-68]
(III) COCCOC(=O)c1ccc2[nH]c3c4c(c5c(c3c2c1)CNC5=O)-c1ccccc1C4C1CCC(OCCOC)O1 (stereo not drawn) [II-52]
Problem: hey, can you rank those molecules up there by inhibition at 0.3 µM? biggest number first please Give the labels in the order specified.
Result: III, I, II
(III: 45%, I: 18%, II: 0%)

* * *

Quick record: IC50, VEGF receptor (human flk-1, KDR, VEGFR2) kinase domain (Homo sapiens).
readoutType: IC50 (nM)

molecule	targetOrSystem	scaleUnit	IC50
CCOC1COCC(C)(C2c3ccccc3-c3c4c(c5c([nH]c6ccccc65)c32)CNC4=O)O1 (stereo not shown) [II-51a]	VEGF receptor (human flk-1, KDR, VEGFR2) kinase domain (Homo sapiens)	nM	170

(P) O=C1NCc2c1c1c(c3c2c2ccccc2n3C[C@H]2CO2)Cc2ccccc2-1 [II-01c]
(Q) CCOC1CCC(C2c3ccccc3-c3c4c(c5c([nH]c6ccccc65)c32)CNC4=O)O1 (stereo not shown) [II-40b]
Problem: Which one would you say has the larger IC50 value: P , or Q ? Use the label to indicate which entry you chose.
Result: Q

* * *

# targetOrSystem: baculovirus-expressed human trkA cytoplasmic domain (Homo sapiens, UniProt P04629)
# Sequence (P04629 440-796 limits assumed): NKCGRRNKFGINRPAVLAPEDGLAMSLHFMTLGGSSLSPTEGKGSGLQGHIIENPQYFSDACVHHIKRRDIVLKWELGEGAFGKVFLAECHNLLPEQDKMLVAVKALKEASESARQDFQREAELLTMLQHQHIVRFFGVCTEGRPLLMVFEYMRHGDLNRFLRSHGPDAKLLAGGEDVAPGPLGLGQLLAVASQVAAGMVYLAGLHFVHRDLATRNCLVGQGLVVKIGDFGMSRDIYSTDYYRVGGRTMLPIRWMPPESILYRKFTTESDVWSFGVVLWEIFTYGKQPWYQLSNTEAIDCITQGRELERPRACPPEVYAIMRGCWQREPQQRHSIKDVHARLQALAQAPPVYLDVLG
readoutType: IC50 (nM)

As a guide, the following entries are already answered.
compound	scaleUnit	IC50
CC1(C)COC(=O)C1(O)C1c2ccccc2-c2c3c(c4c([nH]c5ccccc54)c21)CNC3=O (centres unmarked)	nM	44
O=C1CCC(C2c3ccccc3-c3c4c(c5c([nH]c6ccccc65)c32)CNC4=O)=NN1 (centres unmarked)	nM	321
O=C1CCC(CO)(C2c3ccccc3-c3c4c(c5c([nH]c6ccccc65)c32)CNC4=O)O1 (centres unmarked)	nM	153
O=C1NCc2c1c1c(c3c2c2ccccc2n3C[C@H]2CO2)Cc2ccccc2-1 [II-01c]	nM	163
O=C1NCc2c1c1c(c3[nH]c4ccccc4c23)C(C2(CO)CCCO2)c2ccccc2-1 (centres unmarked) [II-21]	nM	15
O=C1NCc2c1c1c(c3[nH]c4ccccc4c23)C(C2(c3cccs3)CCCO2)c2ccccc2-1 (centres unmarked)	nM	134

(I) O=C1NCc2c1c1c(c3[nH]c4ccccc4c23)C(C2CCC(O)O2)c2ccccc2-1 (single isomer, unassigned)
(II) O=C1NCc2c1c1c(c3[nH]c4ccccc4c23)C(C2CCCO2)c2ccccc2-1 (centres unmarked)
Problem: Which one would you say has the larger IC50 value: I , or II ? Use the label to indicate which entry you chose.
Result: I
(I: 405 nM, II: 19 nM)

* * *

# targetOrSystem: trkA (NIH3T3 cells transfected with trkA) (Homo sapiens, UniProt P04629)
# Construct: expressed in transfected cells; host or cells: NIH3T3
# Sequence (P04629 33-796, species assumed): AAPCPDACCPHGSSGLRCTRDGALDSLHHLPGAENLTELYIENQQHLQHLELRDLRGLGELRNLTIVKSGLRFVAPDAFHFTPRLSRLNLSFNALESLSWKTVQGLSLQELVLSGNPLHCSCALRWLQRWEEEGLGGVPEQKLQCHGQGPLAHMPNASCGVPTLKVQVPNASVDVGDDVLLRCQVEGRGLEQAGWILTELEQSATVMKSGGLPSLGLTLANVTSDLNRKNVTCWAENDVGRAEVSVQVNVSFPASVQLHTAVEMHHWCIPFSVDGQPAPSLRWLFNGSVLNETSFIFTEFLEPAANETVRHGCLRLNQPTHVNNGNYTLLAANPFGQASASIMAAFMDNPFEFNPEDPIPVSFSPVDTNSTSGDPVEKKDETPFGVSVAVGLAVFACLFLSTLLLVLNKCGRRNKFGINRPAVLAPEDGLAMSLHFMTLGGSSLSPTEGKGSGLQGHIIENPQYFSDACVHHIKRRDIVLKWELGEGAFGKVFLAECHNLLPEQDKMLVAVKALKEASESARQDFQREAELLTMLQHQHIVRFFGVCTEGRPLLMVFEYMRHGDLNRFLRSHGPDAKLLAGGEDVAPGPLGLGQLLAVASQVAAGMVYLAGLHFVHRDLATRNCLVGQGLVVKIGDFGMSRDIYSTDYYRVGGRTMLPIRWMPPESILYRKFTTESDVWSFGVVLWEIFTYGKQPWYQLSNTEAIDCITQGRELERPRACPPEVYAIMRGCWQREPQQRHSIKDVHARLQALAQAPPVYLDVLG
# experimentalProtocol: Inhibition of NGF-stimulated trk phosphorylation in a whole cell preparation
# Format: cell-based
# particulars: 1 uM compound, NGF 10 ng/ml
A collection of compounds and their measured Cell Score @ 1 uM (percent decrease in trk protein band)

As a guide, the following entries are already answered.
compound	targetOrSystem	result
O=C1CCC(C2c3ccccc3-c3c4c(c5c([nH]c6ccccc65)c32)CNC4=O)O1 (stereo not drawn) [II-06]	trkA (NIH3T3 cells transfected with trkA) (Homo sapiens, UniProt P04629)	2 (2=26-49%)
O=C1NCc2c1c1c(c3[nH]c4ccccc4c23)C(C2(CO)CCCO2)c2ccccc2-1 (stereo not drawn) [II-21]	trkA (NIH3T3 cells transfected with trkA) (Homo sapiens, UniProt P04629)	4 (4=76-100%)
COc1ccc2c(c1)C(C1(CO)CCCO1)c1c-2c2c(c3c1[nH]c1ccccc13)CNC2=O (stereo not drawn) [II-53]	trkA (NIH3T3 cells transfected with trkA) (Homo sapiens, UniProt P04629)	4 (4=76-100%)
CC1(C)COC(=O)C1(O)C1c2ccccc2-c2c3c(c4c([nH]c5ccccc54)c21)CNC3=O (stereo not drawn) [II-47]	trkA (NIH3T3 cells transfected with trkA) (Homo sapiens, UniProt P04629)	3 (3=50-75%)
COCCOC(=O)c1ccc2[nH]c3c4c(c5c(c3c2c1)CNC5=O)-c1ccccc1C4C1CCC(OCCOC)O1 (stereo not drawn) [II-52]	trkA (NIH3T3 cells transfected with trkA) (Homo sapiens, UniProt P04629)	3 (3=50-75%)

Would you kindly look at the next entry?
Problem: Tell me measured Cell Score @ 1 uM (percent decrease in trk protein band) for O=C1NCc2c1c1c(c3[nH]c4ccccc4c23)C(C2(CO)CCCO2)c2ccccc2-1 (single isomer, unassigned) [II-35] please.
Result: 3 (3=50-75%)

* * *

# targetOrSystem: protein kinase C (UBI; mixed isozymes of a, b, g)
# experimentalProtocol: Inhibition of protein kinase C activity (Millipore Multiscreen TCA in-plate assay)
readoutType: IC50 (µM)

As a guide, the following entries are already answered.
molecule	quantitativeResult
CN1CCC(O)(C2c3ccccc3-c3c4c(c5c([nH]c6ccccc65)c32)CNC4=O)CC1 (stereo not shown) [II-10]	1.57
O=C1NCc2c1c1c(c3[nH]c4ccccc4c23)C(C2(O)CCN(Cc3ccccc3)CC2)c2ccccc2-1 (stereo not shown) [II-02]	7.5
O=C1NCc2c1c1c(c3[nH]c4ccccc4c23)C(C2(O)CCOCC2)c2ccccc2-1 (stereo not shown) [II-03]	4.07
CC1(C2c3ccccc3-c3c4c(c5c([nH]c6ccccc65)c32)CNC4=O)CC(O)(CO)CO1 (stereo not shown) [II-26]	2.07

(a) O=C1NCc2c1c1c(c3[nH]c4ccccc4c23)C(C2CCC(O)O2)c2ccccc2-1 (racemic) [II-23]
(b) CC1(C)COC(=O)C1(O)C1c2ccccc2-c2c3c(c4c([nH]c5ccccc54)c21)CNC3=O (stereo not shown) [II-47]
(c) COc1ccc2c(c1)C(C1(CO)CCCO1)c1c-2c2c(c3c1[nH]c1ccccc13)CNC2=O (stereo not shown) [II-53]
(d) O=C1CCC(CO)(C2c3ccccc3-c3c4c(c5c([nH]c6ccccc65)c32)CNC4=O)O1 (stereo not shown) [II-33]
Problem: hey, can you rank those molecules up there by IC50? biggest number first please Give the labels in the order specified.
Result: c, b, d, a

* * *

# targetOrSystem: trkA (NIH3T3 cells transfected with trkA) (Homo sapiens, UniProt P04629)
# Construct: expressed in transfected cells; host or cells: NIH3T3
# experimentalProtocol: Inhibition of NGF-stimulated trk phosphorylation in a whole cell preparation
# Type: cell-based
# particulars: 1 uM compound, NGF 10 ng/ml
readoutType: Cell Score @ 1 uM (percent decrease in trk protein band)

molecule	result
O=C1NCc2c1c1c(c3[nH]c4ccccc4c23)C(C2CCCO2)c2ccccc2-1 (stereo not shown)	2 (2=26-49%)

Problem: Tell me measured Cell Score @ 1 uM (percent decrease in trk protein band) for CCOC1CCC(CO)(C2c3cc(OC)ccc3-c3c4c(c5c([nH]c6ccccc65)c32)CNC4=O)O1 (single isomer, unassigned) please.
Result: 4 (4=76-100%)

Problem: Tell me measured Cell Score @ 1 uM (percent decrease in trk protein band) for O=C1NCc2c1c1c(c3[nH]c4ccccc4c23)C(C2(CO)CCCO2)c2ccccc2-1 (single isomer, unassigned) [II-36] please.
Result: 4 (4=76-100%)

Problem: Tell me measured Cell Score @ 1 uM (percent decrease in trk protein band) for O=C1NCc2c1c1c(c3[nH]c4ccccc4c23)C(C2(C(O)CO)CCCO2)c2ccccc2-1 (stereo not shown) please.
Result: 4 (4=76-100%)
